Task for the reader: assign each of the following variants its reported protein stability index.
B1: TRIM39 (parent)
chain: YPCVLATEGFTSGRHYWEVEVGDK

variants of: B1; experiment: protein stability index of a GFP-peptide fusion (GPS, HEK-293T) (PSI 1-6); higher = more stable; conditions: c terminus: a fixed tail appended;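 also: lentivirally expressed fusions sorted by FACS into six bins by GFP to DsRed ratio, PSI derived from sequencing read proportions per bin multiplied by bin number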
Write the number on its own, no unit after it.

What value of protein stability index has been recorded for this entry: W17M
3.21

Need protein stability index of A6I , thanks.
2.09

Requested read-out: protein stability index. Entry: Y1W
2.74

Name the recorded protein stability index for E8Y .
1.35

Need protein stability index of C3N , thanks.
1.7

Return reported protein stability index; argument: E8R
1.58

Need protein stability index, item F10T
2.49

Look up protein stability index: A6L
1.45

Field request: protein stability index | item: F10G
2.48

Which protein stability index is listed for G13W ?
1.47

What does the data say about its protein stability index? Entry: Y16F
1.2

Could you tell me which protein stability index is on file for E20Q ?
1.51

Return reported protein stability index; argument: L5W
2.18

Need protein stability index of C3W , thanks.
1.97

Fill in the blank: the reported protein stability index of T11A is ____.
1.97

Please report the recorded protein stability index for H15M .
1.32

Could you tell me which protein stability index is on file for H15N ?
2.76

# lookup: protein stability index of E8V
2.14

Entry under review: V21W . Reported protein stability index?
1.92

// returns reported protein stability index for input G13T
1.72

Which protein stability index is listed for F10E ?
2.77

protein stability index lookup needed for D23F , thanks.
1.58

What value of measured protein stability index is listed for V19T ?
1.41

What does the record list as protein stability index for C3Y ?
1.98

Please look up its protein stability index: E20Y
1.96

Look up protein stability index: C3A
2.05

# protein stability index lookup, item T11L
1.89

Given the entry C3H , report its measured protein stability index.
1.98

Suppose we examine the variant W17C ; what protein stability index value has been reported?
3.22

# protein stability index lookup, item A6K
1.59

Need protein stability index, item A6H
1.99

Dear colleague, I am looking for the recorded protein stability index of the following variant: W17H
3.07

What does the data say about its protein stability index? Entry: V4W
1.74

Which measured protein stability index value corresponds to V4T ?
1.68

Data request, read-out protein stability index, for W17T
3.6

Entry S12H has what protein stability index?
1.67

Which protein stability index value belongs to G13E ?
1.87

# query: protein stability index of entry V4N
1.85

For the variant V19F , what protein stability index is on record?
2.21

Entry K24N : reported protein stability index = ?
2.1

What value of protein stability index has been recorded for this entry: P2L
2.35

Any idea what protein stability index was measured for R14N ?
1.91

For D23E , what is its reported protein stability index?
1.85

Which protein stability index value belongs to G9S ?
1.81

State the recorded protein stability index for this entry: L5T
2.16

Fill blank: measured protein stability index of the variant S12A is ____.
2.15
